Data origin: ChEMBL document CHEMBL4513216

Entries annotated with measured cytotoxicity at 10 µM
experiment: Toxicity liver stage against HepG2, at 10uM; assay type: cell-based; design: test concentration 10 uM, cell line HepG2-A16-CD81EGFP; details: human, HepG2-A16-CD81EGFP cells; read-out: INHIBITION
Give the value, in units of %, as a plain number.

The cases that follow already have their cytotoxicity at 10 µM on record.
- molecule: "CNC(=O)c1ccc(CN(C)c2ccc(C(F)(F)F)cn2)cc1"
  cytotoxicity at 10 µM / %: 6.71
- molecule: "CC1CN(C(=O)CN(Cc2ccccc2Cl)C2CCCC2)CCO1 (stereo unspecified)"
  cytotoxicity at 10 µM / %: -5.65

Ask: Please list cytotoxicity at 10 µM recorded for the molecule CN(C)CCCN1CC2(CCN(C3CCCOC3)CC2)OC1=O (stereo unspecified)
Reply: -5

Ask: Return value of cytotoxicity at 10 µM for input `CN1CCC(Cc2cnc(CNC(=O)Cc3cccc(F)c3)cn2)CC1` , no commentary.
Reply: -2.67

Ask: Given `N#Cc1ccc(F)c(CNc2ccc(F)cc2OCCO)c1` , respond with its cytotoxicity at 10 µM.
Reply: -1.98

Ask: Output measured cytotoxicity at 10 µM for this item: `COc1cc(C(=O)N2Cc3cnc(C(C)(C)C)nc3C2)ccn1`
Reply: 2.03

---

assay: Toxicity liver stage against HepG2, at 10uM; format: cell-based; set-up: test concentration 10 uM, cell line HepG2-A16-CD81EGFP; details: human, HepG2-A16-CD81EGFP cells; read-out: INHIBITION
attribute.measured: cytotoxicity at 10 µM (%)
Reply numerically in %, unit not repeated.

Solved cases (4 shown):
- molecule: "N#CC1(C(=O)N2CCN(Cc3ccon3)CC2)CCC1"
  attribute.measured: "cytotoxicity at 10 µM"
  units.of.measure: "%"
  assay.result: -5.97
- molecule: "CN(CCCC1CCCO1)S(=O)(=O)NCc1ccccc1 (stereo unspecified)"
  attribute.measured: "cytotoxicity at 10 µM"
  units.of.measure: "%"
  assay.result: 2.2
- molecule: "CC(C)N1CCC2(C=C(C(=O)N(C)C)c3ccccc32)CC1"
  attribute.measured: "cytotoxicity at 10 µM"
  units.of.measure: "%"
  assay.result: 1.24
- molecule: "CCn1cc(C(=O)N2CCOC(c3nc(-c4cccs4)no3)C2)cn1 (stereo unspecified)"
  attribute.measured: "cytotoxicity at 10 µM"
  units.of.measure: "%"
  assay.result: 2.91

Ask: Determine its reported cytotoxicity at 10 µM: `O=C1[C@H]2CN(c3ncccn3)C[C@H]2CN1Cc1ccncc1`
Reply: -12.1

Ask: For `Cc1cnn(Cc2cc(F)ccc2F)c1NC(=O)C1CCOCC1` , write its cytotoxicity at 10 µM.
Reply: -0.303

---

This section presents molecules with their documented cytotoxicity at 10 µM values.
experiment: Toxicity liver stage against HepG2, at 10uM; assay type: cell-based; set-up: test concentration 10 uM, cell line HepG2-A16-CD81EGFP; conditions: human, HepG2-A16-CD81EGFP cells; read-out: INHIBITION
Use % as the unit, but write only the number.

Here's what some known entries look like.
- molecule: "CNC(=O)[C@@H](c1ccccc1OC)N1CCC[C@H]1C(=O)N1CC[C@@H](O)C1"
  units.of.measure: "%"
  cytotoxicity at 10 µM: -2.71
- molecule: "CCn1cc(CN2CCCN(C3Cc4ccccc4C3)CC2)c(C)n1"
  units.of.measure: "%"
  cytotoxicity at 10 µM: -10.9
- molecule: "Cc1nc(CN2C[C@@H]3CN(C(=O)c4cccn4C)C[C@@H]3C2)cs1"
  units.of.measure: "%"
  cytotoxicity at 10 µM: 0.346

Please look at the following molecule next.
Ask: Output cytotoxicity at 10 µM of `CCCn1nc(C(=O)N(C)Cc2cnn(C)c2)ccc1=O`
Reply: -143
